Listing: inhibition at 0.3 µM of selected compounds
Test system: MDA-MB-436 cells
Experiment: Colony formation assay
Assay type: cell-based
Conditions: Homo sapiens, 0.3 μM, seeding density 2000-4000 cells/well and treatment time 12-14 days
Counter-ions that a name gives are not always drawn.

{"COMPOUND": "CCN1Cc2ccc(CN3CCN(c4ccc(C(=O)NC)nc4)CC3)cc2NC1=O [Compound 196, formate]", "ASSAYED_TARGET": "MDA-MB-436 cells", "inhibition at 0.3 µM": "< 33.3%"}
{"COMPOUND": "CCn1c(=O)[nH]c2cc(CN3CCN(c4ccc(C(=O)NC)nc4C)CC3)ccc2c1=S [Compound 51, formate]", "ASSAYED_TARGET": "MDA-MB-436 cells", "inhibition at 0.3 µM": "≥ 66.7%"}
{"COMPOUND": "CCn1c(=O)[nH]c2cc(CN3CCN(c4ccc(C(=O)NC)nc4C)CC3)sc2c1=O", "ASSAYED_TARGET": "MDA-MB-436 cells", "inhibition at 0.3 µM": "≥ 66.7%"}
{"COMPOUND": "CCn1c(=O)[nH]c2cc(CN3CCN(c4ccc(C(=O)NC)nc4C)CC3)ccc2c1=O", "ASSAYED_TARGET": "MDA-MB-436 cells", "inhibition at 0.3 µM": "≥ 66.7%"}
{"COMPOUND": "CCn1c(=O)[nH]c2cc(CN3CCN(c4ccc(C(=O)NC)nc4)CC3)ccc2c1=O [Compound 3, formate]", "ASSAYED_TARGET": "MDA-MB-436 cells", "inhibition at 0.3 µM": "≥ 66.7%"}

###

Tested on: DLD-1 wild-type colorectal adenocarcinoma cells
Experiment: Cell viability assay (Cell Titer-Glo), DLD-1 wild-type
Assay type: cell-based
Settings: Homo sapiens, DLD-1, 168 h; 10 μM, 7 days incubation; read-out: DLD-1 wild-type % inh at 10 μM
Where a name gives a salt, the structure may show the parent alone.
Listing: inhibition at 10 µM of selected molecules

{"MOLECULE": "CCn1c(=O)[nH]c2cc(CN3CCN(c4ccc(C(=O)NC(CO)CO)nc4C)CC3)sc2c1=O", "inhibition at 10 µM": "< 33%"}
{"MOLECULE": "CCn1c(=O)[nH]c2cc(CN3CCN(c4cnc5c(NC)nccc5c4)CC3)sc2c1=O [Compound 360, formate]", "inhibition at 10 µM": "33 to 67%"}
{"MOLECULE": "CCn1c(=O)[nH]c2cc(CN3CCC(c4ccc(C(=O)NC)nc4C)CC3)ccc2c1=S [Compound 498, formate]", "inhibition at 10 µM": "33 to 67%"}
{"MOLECULE": "CCn1c(=O)[nH]c2cc(CN3CCN(c4ccc(C(=O)NC)nc4C)CC3)ccc2c1=S [Compound 51, formate]", "inhibition at 10 µM": "> 67%"}

###

Target: recombinant human PARP2 (Homo sapiens, UniProt Q9UGN5)
Sequence (Q9UGN5 whole entry): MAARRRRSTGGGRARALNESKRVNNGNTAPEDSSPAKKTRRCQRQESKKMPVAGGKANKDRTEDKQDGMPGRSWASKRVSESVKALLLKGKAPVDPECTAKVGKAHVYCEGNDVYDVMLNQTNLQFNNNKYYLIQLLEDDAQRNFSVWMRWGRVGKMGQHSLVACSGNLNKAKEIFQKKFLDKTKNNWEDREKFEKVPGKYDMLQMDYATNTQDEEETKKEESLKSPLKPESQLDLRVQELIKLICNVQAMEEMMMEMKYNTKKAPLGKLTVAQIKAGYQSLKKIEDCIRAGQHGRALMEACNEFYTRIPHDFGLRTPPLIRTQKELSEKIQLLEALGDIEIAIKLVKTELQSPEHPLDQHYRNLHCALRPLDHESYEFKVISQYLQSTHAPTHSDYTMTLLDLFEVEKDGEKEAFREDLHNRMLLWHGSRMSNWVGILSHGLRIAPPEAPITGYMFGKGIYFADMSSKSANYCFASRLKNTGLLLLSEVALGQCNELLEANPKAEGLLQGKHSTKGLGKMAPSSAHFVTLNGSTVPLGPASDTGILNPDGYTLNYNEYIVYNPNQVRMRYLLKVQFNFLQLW
Experiment: PARP2 fluorescence polarization binding assay
Settings: read-out: PARP2 % inh at 10 μM
Where a name gives a salt, the structure may show the parent alone.
Listing: inhibition at 10 µM of selected molecules

{"MOLECULE": "CNC(=O)c1ccc(N2CCN(Cc3ccc4c(=O)n(C(C)C)c(=O)[nH]c4c3)CC2)cn1 [Compound 4]", "inhibition at 10 µM": "33 to 67%"}
{"MOLECULE": "CCn1c(=O)[nH]c2cc(CN3CCN(c4ccc(C(=O)NC)nc4C)CC3)c(C#N)cc2c1=S [Compound 505, trifluoroacetate]", "inhibition at 10 µM": "33 to 67%"}
{"MOLECULE": "CCn1c(=O)[nH]c2cc(CN3CCN(c4ccc(C(=O)NC)nc4C(F)(F)F)CC3)sc2c1=O [Compound 307]", "inhibition at 10 µM": "33 to 67%"}
{"MOLECULE": "CCn1c(=O)[nH]c2cc(CN3CCN(c4ccc(C(=O)NC)nc4)CC3)ccc2c1=O [Compound 3, formate]", "inhibition at 10 µM": "33 to 67%"}
{"MOLECULE": "CCN1Cc2ccc(CN3CCN(c4ccc(C(=O)NC)nc4C)CC3)cc2NC1=O [Compound 202]", "inhibition at 10 µM": "33 to 67%"}
{"MOLECULE": "CCn1c(=O)[nH]c2cc(CN3CCN(c4ccc(C(=O)NC)nc4)CC3)ccc2c1=S [Compound 40, formate]", "inhibition at 10 µM": "33 to 67%"}
{"MOLECULE": "CCn1c(=O)[nH]c2c(F)c(CN3CCN(c4ccc(C(=O)NC)nc4C)CC3)ccc2c1=S [Compound 184]", "inhibition at 10 µM": "33 to 67%"}
{"MOLECULE": "CCn1c(=O)[nH]c2cc(CN3CCN(c4cnc5c(NC)nccc5c4)CC3)sc2c1=O [Compound 360, formate]", "inhibition at 10 µM": "33 to 67%"}
{"MOLECULE": "CCn1c(=O)[nH]c2cc(C=C3CCN(c4ccc(C(=O)NC)nc4C)CC3)ccc2c1=S [Compound 507]", "inhibition at 10 µM": "33 to 67%"}
{"MOLECULE": "CCn1c(=O)[nH]c2cc(CN3CCN(c4ccc(C(=O)NC(CO)CO)nc4C)CC3)sc2c1=O [Compound 527]", "inhibition at 10 µM": "33 to 67%"}
{"MOLECULE": "CCn1c(=O)[nH]c2cc(CN3CCN(c4ccc(C(N)=O)nc4C)CC3)sc2c1=O [Compound 516]", "inhibition at 10 µM": "33 to 67%"}
{"MOLECULE": "CCn1c(=O)[nH]c2cc(CN3CCN(c4ccc(C(=O)NC)nc4C)CC3)sc2c1=O [Compound 188]", "inhibition at 10 µM": "33 to 67%"}
{"MOLECULE": "CCn1c(=O)[nH]c2cc(CN3CC4(C3)CN(c3ccc(C(=O)NC)nc3)C4)ccc2c1=O [Compound 100]", "inhibition at 10 µM": "33 to 67%"}
{"MOLECULE": "CNC(=O)c1ccc(N2CCN(Cc3ccc4c(=O)n(C)c(=O)[nH]c4c3)CC2)cn1 [Compound 2]", "inhibition at 10 µM": "33 to 67%"}

###

Listing: inhibition at 10 µM of selected compounds
Tested on: DLD-1 wild-type colorectal adenocarcinoma cells
Experiment: Cell viability assay (Cell Titer-Glo), DLD-1 wild-type
Format: cell-based
Conditions: Homo sapiens, DLD-1, 168 h; 10 μM, 7 days incubation; read-out: DLD-1 wild-type % inh at 10 μM
Procedure: Compounds of the present disclosure were tested for their effects on the viability of cancer cells. […] The cells were harvested during the logarithmic growth period, counted, and seeded at 50 cells/well for DLD-1 wild-type and 200 cells/well for DLD-1 BRCA2(−/−) in a 384-well cell culture plate. […] Cell viability was assessed by luminescence measurement after addition of Cell Titer-Glo reagent (Promega, Madison, Wis.) according to the manufacturer's instructions. […]
Structures can show the parent of a compound that is named as a salt.

{"COMPOUND": "CCn1c(=O)[nH]c2cc(CN3CCN(c4ccc(C(=O)NC)nc4F)CC3)sc2c1=O [Compound 319]", "inhibition at 10 µM": "< 33%"}
{"COMPOUND": "CCn1c(=O)[nH]c2cc(CN3CCN(c4ccc(C(=O)NC)nc4C)CC3)c(C#N)cc2c1=S [Compound 505, trifluoroacetate]", "inhibition at 10 µM": "< 33%"}
{"COMPOUND": "CCN1Cc2ccc(CN3CCN(c4ccc(C(=O)NC)nc4C)CC3)cc2NC1=O [Compound 202]", "inhibition at 10 µM": "< 33%"}
{"COMPOUND": "CCn1c(=O)[nH]c2cc(CN3CCN(c4ccc(C(=O)NC)nc4)CC3)ccc2c1=S [Compound 40, formate]", "inhibition at 10 µM": "< 33%"}
{"COMPOUND": "CNC(=O)c1ccc(N2CCN(Cc3ccc4c(=O)n(C5CC5)c(=O)[nH]c4c3)CC2)cn1 [Compound 5]", "inhibition at 10 µM": "< 33%"}
{"COMPOUND": "CCn1c(=O)[nH]c2c(F)c(CN3CCN(c4ccc(C(=O)NC)nc4C)CC3)ccc2c1=S [Compound 184]", "inhibition at 10 µM": "33 to 67%"}
{"COMPOUND": "CCn1c(=O)[nH]c2cc(CN3CCN(c4ccc(C(=O)NC)nc4C)CC3)sc2c1=O [Compound 188]", "inhibition at 10 µM": "< 33%"}
{"COMPOUND": "CCn1c(=O)[nH]c2cc(C=C3CCN(c4ccc(C(=O)NC)nc4C)CC3)ccc2c1=S [Compound 507]", "inhibition at 10 µM": "> 67%"}

###

Structures can show the parent of a compound that is named as a salt.
For reference, IC50 measured on PARP1 (Homo sapiens, UniProt P09874):
MEASURED_METRIC: IC50

{"COMPOUND": "CCn1c(=O)[nH]c2cc(CN3CCN(c4ccc(C(=O)NC)nc4C)CC3)ccc2c1=O", "RESULT": "< 100 nM"}
{"COMPOUND": "CCn1c(=O)[nH]c2cc(CN3CCN(c4ccc(C(=O)NC)nc4C)C(=O)C3)sc2c1=O", "RESULT": "100 to 3000 nM"}
{"COMPOUND": "CCn1c(=O)[nH]c2cc(CN3CCN(c4ccc(C(=O)N5CCCC5)nc4C)CC3)sc2c1=O", "RESULT": "> 3000 nM"}
{"COMPOUND": "CCn1c(=O)[nH]c2cc(CN3CCN(c4cnc5c(NC)nccc5c4)CC3)sc2c1=O [Compound 360, formate]", "RESULT": "< 100 nM"}
{"COMPOUND": "CNC(=O)c1ccc(N2CCN(Cc3ccc4c(=O)n(C5CC5)c(=O)[nH]c4c3)CC2)cn1", "RESULT": "< 100 nM"}
{"COMPOUND": "CCn1c(=O)[nH]c2cc(CN3CCC(c4ccc(C(=O)NC)nc4C)CC3)ccc2c1=S [Compound 498, formate]", "RESULT": "< 100 nM"}
